Hey, just so you know, these numbers are from patent US20230365537A1.

- Tested On: human recombinant Aurora B (Homo sapiens (Human))
- Sequence (Q96GD4 whole entry): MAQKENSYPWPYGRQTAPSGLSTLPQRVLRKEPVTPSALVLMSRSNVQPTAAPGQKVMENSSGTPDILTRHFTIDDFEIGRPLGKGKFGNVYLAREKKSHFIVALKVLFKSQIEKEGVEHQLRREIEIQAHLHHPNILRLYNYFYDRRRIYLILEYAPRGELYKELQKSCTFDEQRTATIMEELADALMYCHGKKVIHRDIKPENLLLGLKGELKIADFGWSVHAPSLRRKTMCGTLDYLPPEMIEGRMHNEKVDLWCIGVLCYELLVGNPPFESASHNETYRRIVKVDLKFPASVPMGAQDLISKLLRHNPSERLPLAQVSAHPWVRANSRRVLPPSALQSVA
- Assay Remarks: Aurora B Kinase Biochemical Assay (ADP-Glo)
- Study Conditions: ratio of Aurora B IC50 to PLK4 IC50 (selectivity)
Listed here are compounds together with their documented [Aurora B IC50 (nM)]/[PLK4 IC50 (nM)].
# output: bare number, no unit

> print(dat)
                         structure.notation                             value.type   reading
1  COc1cnc(C)nc1Nc1n[nH]c2cc([C@@H]3C[C@@]34C(=O)Nc3ccc(C(F)(F)F)cc34)ccc12  [Aurora B IC50 (nM)]/[PLK4 IC50 (nM)]        72
2  COc1ccc2c(c1)[C@]1(C[C@H]1c1ccc3c(Nc4ccc(C(=O)N(C5CC5)C5CC5)nc4OC)n[nH]c3c1)C(=O)N2  [Aurora B IC50 (nM)]/[PLK4 IC50 (nM)]  164.5778
3  COc1ccc2c(c1)[C@]1(C[C@H]1c1ccc3c(Nc4nc(N5CC(F)(F)C5)ncc4OC)n[nH]c3c1)C(=O)N2  [Aurora B IC50 (nM)]/[PLK4 IC50 (nM)]  314.9287

Let us examine a further case.
Short answer for "COc1ccc2c(c1)[C@]1(C[C@H]1c1ccc3c(Nc4ncc(S(=O)(=O)C5CC5)cc4OC)n[nH]c3c1)C(=O)N2" : [Aurora B IC50 (nM)]/[PLK4 IC50 (nM)] was 464.7558

* * *

- Tested On: human recombinant Aurora A (Homo sapiens (Human), UniProt O14965)
- Sequence (O14965 whole entry): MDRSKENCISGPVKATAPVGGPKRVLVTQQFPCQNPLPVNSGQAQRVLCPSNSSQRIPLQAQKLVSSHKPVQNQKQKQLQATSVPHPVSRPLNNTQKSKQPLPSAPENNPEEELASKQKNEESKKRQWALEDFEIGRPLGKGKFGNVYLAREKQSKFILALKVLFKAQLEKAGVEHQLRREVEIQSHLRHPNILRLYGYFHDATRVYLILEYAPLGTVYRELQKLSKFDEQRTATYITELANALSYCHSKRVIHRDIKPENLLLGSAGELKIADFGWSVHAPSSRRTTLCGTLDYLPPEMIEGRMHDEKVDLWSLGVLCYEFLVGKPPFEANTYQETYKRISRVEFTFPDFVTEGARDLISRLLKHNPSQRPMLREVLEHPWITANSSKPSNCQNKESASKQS
- Assay Remarks: Aurora A Kinase Biochemical Assay (ADP-Glo)
- Study Conditions: ratio of Aurora A IC50 to PLK4 IC50 (selectivity)
Lab note - cut at 1000 for [Aurora A IC50 (nM)]/[PLK4 IC50 (nM)]: yes (1) if strictly below, no (0) if not.

> print(dat)
                         structure.notation  class.name
1  COc1ccc2c(c1)[C@]1(C[C@H]1c1ccc3c(Nc4nccnc4OC)n[nH]c3c1)C(=O)N2     yes (1)

Input line: For "COc1ccc2c(c1)[C@]1(C[C@H]1c1ccc3c(Nc4ncc(S(=O)(=O)N5CC6CCC(C5)O6)cc4OC)n[nH]c3c1)C(=O)N2" , is the recorded [Aurora A IC50 (nM)]/[PLK4 IC50 (nM)] below the cut-off of 1000?
Output line: no (0)

Input line: For "COc1ccc2c(c1)[C@]1(C[C@H]1c1ccc3c(Nc4nn(C)cc4OC)n[nH]c3c1)C(=O)N2" , is the recorded [Aurora A IC50 (nM)]/[PLK4 IC50 (nM)] below the cut-off of 1000?
Output line: yes (1)

Input line: For "COc1ccc2c(c1)[C@]1(C[C@H]1c1ccc3c(Nc4cc(C(C)C)nnc4OC)n[nH]c3c1)C(=O)N2" , is the recorded [Aurora A IC50 (nM)]/[PLK4 IC50 (nM)] below the cut-off of 1000?
Output line: no (0)

Input line: For "COc1ccc2c(c1)[C@]1(C[C@H]1c1ccc3c(Nc4nc(Cl)nc5ccn(C)c45)n[nH]c3c1)C(=O)N2" , is the recorded [Aurora A IC50 (nM)]/[PLK4 IC50 (nM)] below the cut-off of 1000?
Output line: no (0)

Input line: For "COc1ccc2c(c1)[C@]1(C[C@H]1c1ccc3c(Nc4ccc(C)nc4OC)n[nH]c3c1)C(=O)N2" , is the recorded [Aurora A IC50 (nM)]/[PLK4 IC50 (nM)] below the cut-off of 1000?
Output line: yes (1)

Input line: For "COc1ccc2c(c1)[C@]1(C[C@H]1c1ccc3c(Nc4ncc(S(=O)(=O)C5CC5)cc4OC)n[nH]c3c1)C(=O)N2" , is the recorded [Aurora A IC50 (nM)]/[PLK4 IC50 (nM)] below the cut-off of 1000?
Output line: no (0)
